// values below are reported EC50
- studyTarget: Solute carrier family 12 member 5 (Homo sapiens, UniProt Q9H2X9)
- Sequence (Q9H2X9 whole entry): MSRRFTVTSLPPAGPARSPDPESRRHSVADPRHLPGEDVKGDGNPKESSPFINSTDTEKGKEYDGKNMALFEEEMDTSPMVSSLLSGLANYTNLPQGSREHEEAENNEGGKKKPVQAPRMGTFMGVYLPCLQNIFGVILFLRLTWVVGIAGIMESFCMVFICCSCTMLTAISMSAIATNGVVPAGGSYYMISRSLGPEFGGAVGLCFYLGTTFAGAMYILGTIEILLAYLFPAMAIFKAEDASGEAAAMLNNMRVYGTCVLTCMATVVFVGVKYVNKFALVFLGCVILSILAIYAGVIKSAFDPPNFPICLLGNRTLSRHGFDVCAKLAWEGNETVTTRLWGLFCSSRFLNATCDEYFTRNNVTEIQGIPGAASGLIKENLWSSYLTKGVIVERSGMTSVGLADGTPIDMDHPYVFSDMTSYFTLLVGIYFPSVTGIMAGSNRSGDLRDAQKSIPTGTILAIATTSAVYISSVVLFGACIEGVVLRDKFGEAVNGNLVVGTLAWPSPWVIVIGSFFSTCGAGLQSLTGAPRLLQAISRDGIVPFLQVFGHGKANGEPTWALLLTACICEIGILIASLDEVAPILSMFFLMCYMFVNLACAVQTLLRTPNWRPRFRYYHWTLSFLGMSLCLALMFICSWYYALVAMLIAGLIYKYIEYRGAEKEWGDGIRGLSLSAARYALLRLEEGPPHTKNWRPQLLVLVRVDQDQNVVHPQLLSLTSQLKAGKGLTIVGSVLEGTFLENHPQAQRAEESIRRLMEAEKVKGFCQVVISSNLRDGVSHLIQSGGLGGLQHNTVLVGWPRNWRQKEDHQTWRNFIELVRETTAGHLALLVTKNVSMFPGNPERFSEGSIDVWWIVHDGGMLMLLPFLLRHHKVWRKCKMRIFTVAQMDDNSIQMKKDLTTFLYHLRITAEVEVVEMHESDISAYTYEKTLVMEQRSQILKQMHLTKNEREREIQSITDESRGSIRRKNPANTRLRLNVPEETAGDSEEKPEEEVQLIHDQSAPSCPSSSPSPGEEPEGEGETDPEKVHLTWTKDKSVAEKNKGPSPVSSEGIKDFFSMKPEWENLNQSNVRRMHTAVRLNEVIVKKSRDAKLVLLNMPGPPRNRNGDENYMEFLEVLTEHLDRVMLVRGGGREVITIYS
- assayExplanation: KCC2 cotransport modulators, dose response, cell-based, assay 2 (AID 1723)
- measurementSetup: inactive by the depositor's call
The response must be a number in µM with no trailing unit.

Cc1ccc(Cn2c(SCC(=O)Nc3cc(C)on3)nc3ccccc3c2=O)cc1 | 138

Could you now look at the following molecule, please?
Problem: Name the reported EC50 value associated with the molecule Cc1noc(/C=C/N(C)C)c1S(=O)(=O)N(C)CC(=O)NC1CCCCC1 [MLS000047204]
Solution: 0.61

====

- studyTarget: Solute carrier family 12 member 5 (Homo sapiens, UniProt Q9H2X9)
- assayExplanation: KCC2 cotransport modulators, dose response, cell-based, assay 2 (AID 1723)
// values below are reported pEC50
To interpret pEC50, take it as minus log10 of a concentration measured in moles per litre.

Problem: Name the reported pEC50 value associated with the compound Cc1[nH]n2c(=O)cc(C(C)C)nc2c1-c1ccccc1
Solution: 4.89

Problem: Then what about the compound CNc1ccc2oc(C[C@H]3O[C@@]4(CC[C@H]3C)O[C@H]([C@H](C)C(=O)c3ccc[nH]3)[C@H](C)C[C@H]4C)nc2c1C(=O)O ?
Solution: 4.81
